This section presents compounds with their documented pIC50 values.
- Tested system: purified Z-AAT protein (Homo sapiens, UniProt P01009, E366K)
- Construct: Purified Z-AAT protein from human plasma
- Sequence (P01009 25-418 E366K): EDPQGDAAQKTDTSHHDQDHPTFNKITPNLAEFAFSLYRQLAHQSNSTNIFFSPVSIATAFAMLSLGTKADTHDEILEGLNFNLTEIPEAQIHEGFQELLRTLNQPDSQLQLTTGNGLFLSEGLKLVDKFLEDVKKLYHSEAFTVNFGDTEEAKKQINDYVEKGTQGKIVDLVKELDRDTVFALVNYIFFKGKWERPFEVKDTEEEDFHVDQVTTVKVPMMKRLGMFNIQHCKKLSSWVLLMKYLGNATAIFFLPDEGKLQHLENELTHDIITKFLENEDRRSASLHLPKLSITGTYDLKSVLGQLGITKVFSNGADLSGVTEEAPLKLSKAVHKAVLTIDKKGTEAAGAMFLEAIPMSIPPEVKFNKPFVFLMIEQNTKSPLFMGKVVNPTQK
- Test summary: Biochemical Assay (Z-AAT Elastase Activity Assay)
- Settings: purified Z-AAT pre-incubated with compound 1 hour, then hNE; N.D. = activity not detected up to 30 μM
pIC50: −log10 of the molar value.
Observed property: pIC50

>>> df
                                    compound  observed_property  measured_result
 0  COc1cc(-n2c(C(C)C3COC3)c(-c3ccc(C(=O)O)c(OC)c3)c3c(O)cc(F)cc32)ccc1F (centres unmarked) [Compound 530]              pIC50           < 5.30
 1  CC(C)(CCC#N)c1c(-c2ccc(C(=O)O)cc2)c2c(O)cccc2n1-c1ccc(F)cc1              pIC50           > 5.70
 2  CC(C)c1c(C2CC3(CC(C(=O)O)C3)C2)c2c(F)cccc2n1-c1ccc(F)cc1 (centres unmarked)              pIC50           < 5.30
 3  O=C(O)c1cc(-c2c(C3CCOCC3)n(-c3ccc(F)cc3)c3cccc(O)c23)cnc1C(F)(F)F              pIC50           < 4.52
 4  CC1(C(=O)O)CC(c2c(C(F)(F)F)n(-c3ccc(F)cc3)c3cccc(O)c23)C1 (centres unmarked)              pIC50           < 4.52
 5  COc1cc(-n2c(C3(C)CCOCC3)c(-c3ccc(C(=O)O)c(OC)c3)c3c(O)cc(F)cc32)ccc1F              pIC50           < 5.30
 6  Cc1cc(-n2c(C(C)C)c(C3CC4(CC(C(=O)O)C4)C3)c3cc(F)ccc32)ccc1F (centres unmarked)              pIC50           < 4.52
 7  Cc1cc(-n2c(C(C)(C)CO)c(-c3ccc(C(=O)O)cc3)c3c(O)cc(F)cc32)ccc1F              pIC50           > 5.70
 8  COCC1(c2c(-c3ccc(C(=O)O)c(OC)c3)c3c(O)cc(F)cc3n2-c2ccc(F)c(OC)c2)CCC1              pIC50           < 4.52
 9  CCC1(c2c(-c3ccc(C(=O)O)cc3)c3c(O)cc(F)cc3n2-c2ccc(F)c(OC)c2)COC1              pIC50     5.30 to 5.70
10  Cc1cc(-n2c(C(C)(C)CC#N)c(-c3cc(C)c(C(=O)O)s3)c3c(O)cc(F)cc32)ccc1F              pIC50           > 5.70
11  COc1cc(-n2c(C3CCC3OC)c(-c3ccc(C(=O)O)c(OC)c3)c3c(O)cc(F)cc32)ccc1F (centres unmarked)              pIC50           < 4.52
12  COc1cc(-n2c(C(C)(C)CC#N)c(-c3ccc(C(=O)O)c(OC)c3)c3ccc(F)cc32)ccc1F              pIC50           < 4.52
13  O=C(O)c1ccc(-c2c(C3CCOCC3)n(-c3ccc(F)cc3)c3cc(C(F)(F)F)cc(O)c23)cc1              pIC50           < 4.52
14  Cc1cc(-n2c(C3CCOCC3)c(-c3ccc(C(=O)O)c(F)c3)c3c(O)c(F)ccc32)ccc1F              pIC50           > 5.70
15  Cc1cc(-n2c(C(C)(C)CO)c(-c3ccc(C(=O)O)cc3)c3c(O)cc(Cl)cc32)ccc1F              pIC50           < 5.30
16  Cc1cc(-n2c(C(C)(C)CC#N)c(-c3ccc(C(=O)O)cc3F)c3c(O)c(F)ccc32)ccc1F              pIC50           > 5.70
17  Cc1cc(-n2c(C3(C)CC(O)C3)c(-c3ccc(C(=O)O)cc3)c3c(O)cc(F)cc32)ccc1F (centres unmarked)              pIC50     5.30 to 5.70
18  COCC(C)(C)c1c(-c2ccc(C(=O)O)c(O)c2)c2c(O)cc(F)cc2n1-c1ccc(OC)c(F)c1              pIC50           < 5.30
19  Cc1cc(-n2c(C3CCOCC3)c(CC3(C(=O)O)CC3)c3c(O)cccc32)ccc1F              pIC50           < 4.52
20  C[C@]1(O)CC[C@H](c2c(-c3ccc(C(=O)O)cc3)c3c(O)cccc3n2-c2ccc(F)cc2)CC1              pIC50           < 4.52
21  Cc1cc(-n2c(C(C)C)c(S(=O)(=O)c3ccc(C(=O)O)cc3)c3cc(F)ccc32)ccc1F              pIC50           < 5.30
22  COc1cc(-n2c(C3CCOCC3)c(-c3ccc(C(=O)O)cc3)c3c(O)cccc32)ccc1F              pIC50           < 5.30
23  COCC(C)(C)c1c(-c2ccc(C(=O)O)cc2)c2c(O)cc(F)cc2n1-c1ccc(F)cc1              pIC50           > 5.70
24  Cc1cc(-n2c(C3CCOCC3)c(-c3ccc4c(c3)COC4=O)c3c(O)cc(F)cc32)ccc1F              pIC50           > 5.70
25  CC1(c2c(-c3ccc(C(=O)O)cc3)c3c(O)cccc3n2-c2ccc(F)cc2)CCOCC1              pIC50           > 5.70
26  COCC1(c2c(-c3ccc(C(=O)O)c(O)c3)c3c(O)cccc3n2-c2ccc(F)c(OC)c2)CCC1              pIC50           < 5.30
27  COc1cc(-n2c3cc(F)cc(O)c3c(-c3ccc(C(=O)O)c(OC)c3)c2[C@]2(C)C[C@@H](O)C2)ccc1F (single isomer, unassigned) [Compound 520]              pIC50           < 5.30
28  Cc1cc(-n2c(C3CCOCC3)c([C@H]3C[C@@](C)(C(=O)O)C3)c3cc(F)ccc32)ccc1F              pIC50           < 4.52

====

- Tested system: purified Z-AAT protein (Homo sapiens, UniProt P01009, E366K)
- Construct: Purified Z-AAT protein from human plasma
- Test summary: Biochemical Assay (Z-AAT Elastase Activity Assay)
- Settings: purified Z-AAT pre-incubated with compound 1 hour, then hNE; N.D. = activity not detected up to 30 μM
pIC50: −log10 of the molar value.
pIC50 overview
Observed property: pIC50

>>> print(df.to_string())
                                   compound  observed_property  measured_result
0  COc1cc(-n2c(C3(CC#N)CCC3)c(-c3ccc(C(=O)O)cc3)c3cc(F)c(F)cc32)ccc1F              pIC50           < 5.30
1  O=C(O)c1cc(-c2c(C3CCOCC3)n(-c3ccc(F)cc3)c3cccc(O)c23)cc(C(F)(F)F)c1              pIC50           < 5.30
2  O=C(O)Cc1ccc(-c2c(C3CCOCC3)n(-c3ccc(F)cc3)c3cccc(O)c23)cc1              pIC50           < 4.52
3  Cc1cc(-n2c(C(C)C)c(C3CC(C)(C(=O)O)C3)c3c(O)cccc32)ccc1F (stereo not drawn) [Compound 57]              pIC50           < 4.52
4  COCC1(c2c(-c3cccc(C(=O)O)c3)c3c(O)cc(F)cc3n2-c2ccc(F)c(OC)c2)CCC1              pIC50           < 5.30
5  Cc1cc(-n2c(C3CCOCC3)c(-c3ccc(C(=O)O)cc3F)c3c(O)cccc32)ccc1F              pIC50     5.30 to 5.70
6  CS(=O)(=O)N1CCC(c2c(-c3ccc(C(=O)O)cc3)c3c(O)cccc3n2-c2ccc(F)cc2)C1 (stereo not drawn)              pIC50           < 4.52
7  O=C(O)c1ccc(-c2c(C(F)(F)F)n(-c3ccc(F)c(F)c3)c3cccc(O)c23)cc1              pIC50     5.30 to 5.70
8  COc1cc(-n2c(C(C)(C)CC#N)c(-c3ccc(C(=O)O)cc3F)c3c(O)cc(F)cc32)ccc1F              pIC50           > 5.70
